target: T1, HER2 (Homo sapiens (Human), UniProt P04626 23-1255); experiment: antigen assigned by the filing's classifying and identification method; details for this clone not given
T1 construct: Native protein on cancer cell lines; also called erbB-2; ErbB2
measurement.label: binding result

INSERT INTO results (binder, result) VALUES
  ('015-136 antibody (antibody, V domains shown, Clone of the scFv-CL-cp3 phage library) VH: QVQLVQSGSELKKPGASVKVSCKASGYIFTRYGINWVRQAPGQGLEWMGWINTNTGNPTYAQGFTGRVVFSLDTSVSTAYLQISSLKAEDTAMYYCAISSGFGYYFDYWGQGTLVTVSR VL: DIQMTQSPSSVSASVGDRVTITCRASQSISRWLAWYQQKPGKAPKFLIYAGSSLQSGVPSRFSGSGSGTDFTLTISSLQPEDFATYYCQQTNSFPLTFGGGTKVEIK', 'binds');

From: patent US20090203538A1
